Entry source: patent US11584722B2

# system.under.test: aldolase A (Homo sapiens, UniProt P04075)
# Sequence (P04075 whole entry): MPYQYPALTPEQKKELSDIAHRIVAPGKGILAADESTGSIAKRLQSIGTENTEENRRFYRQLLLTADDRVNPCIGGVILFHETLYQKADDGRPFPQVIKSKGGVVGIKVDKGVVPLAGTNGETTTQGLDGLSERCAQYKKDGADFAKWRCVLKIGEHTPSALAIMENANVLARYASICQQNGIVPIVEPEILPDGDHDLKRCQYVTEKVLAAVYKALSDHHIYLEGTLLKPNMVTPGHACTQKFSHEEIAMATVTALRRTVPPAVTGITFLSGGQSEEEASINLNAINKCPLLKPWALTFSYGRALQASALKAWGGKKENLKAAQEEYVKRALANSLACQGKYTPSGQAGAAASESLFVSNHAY
# test: Activity assay at protein level: aldolase-catalyzed degradation of fructose-1,6-biphosphate, coupled triose phosphate isomerase/glycerol-3-phosphate dehydrogenase method
# Format: biochemical
# measurement.context: test concentration of compound 100 μM, FBP 500 μM, 37° C., read-out: Inhibition rate (%) of aldolase activity
# Procedure: The inhibition on aldolase activity of a compound was evaluated by its inhibition on the rate of aldolase-catalyzed degradation of the substrate fructose-1,6-biphosphate (FBP). […] (2) 70 μL of an enzyme reaction system (its formulation was given below) was added, and immediately put into a microplate reader (SpectraMax M5, Molecular Devices), to carry out reaction at 37° C. […] The absorbance value linearly changed with time, and the slope was the enzyme activity of aldolase in the well. […]
I'd appreciate it if you could supply inhibition at 100 µM values for the items below.
Give your result as the value with the unit written after it.

Q: Find the measured inhibition at 100 µM: item `CCn1cc[n+](Cc2c(Cl)cccc2Cl)c1C` , target or system aldolase A (Homo sapiens, UniProt P04075).
Result: 88.4%

Q: // query: `CCCn1cc[n+](Cc2cc(F)ccc2OC)c1C`
Result: 0.06%

Q: Item: `CCn1cc[n+](Cc2cc(F)ccc2OC)c1C`
Result: 83.4%

Q: Now the compound `Cc1n(C(C)C)cc[n+]1Cc1c(Cl)cccc1Cl`
Result: 5.06%

Q: Also check `CCCCCCCCCCCCCCCCn1c(C)[n+](Cc2c(F)cccc2Cl)c2ccccc21`
Result: 49.9%
